Numbers sourced from ChEMBL document CHEMBL3400059.

# Test system: Brain
# ASSAY INFO: Drug level in mouse brain at 1 mg/kg, ip administered as cassette dosing
# Assay type: ADME, organism-based
# Parameters: dose 1 mg/kg, route intraperitoneal
# EXPERIMENTAL CONTEXT: in vivo
MEASURED ATTRIBUTE: Drug uptake (ng/g)
Give bare numbers, in ng/g.

INSERT INTO results (molecule, tested_system, measured_attribute, recorded_number) VALUES
  ('COc1ccc(C(=O)NCc2cc(C(C)C)no2)cc1OCCN1CCCCC1', 'Brain', 'Drug uptake', 1.8);

// batch mode: one Drug uptake value per listed entry
1. COc1ccc(C(=O)NC(C)Cc2ccccn2)cc1OC1CCN(C(C)C)CC1 (centres undefined)
2. COc1ccc(C(=O)NCc2csc(C)n2)cc1OC1CCN(C(C)C)CC1
3. COc1ccc(C(=O)NCc2cc(C(C)C)no2)cc1OC1CCN(C)CC1

Response:
1: 4; 2: 1.5; 3: 3.3

###

# TESTED SYSTEM: Cytochrome P450 3A4 (Homo sapiens, UniProt P08684)
# Sequence (P08684 whole entry): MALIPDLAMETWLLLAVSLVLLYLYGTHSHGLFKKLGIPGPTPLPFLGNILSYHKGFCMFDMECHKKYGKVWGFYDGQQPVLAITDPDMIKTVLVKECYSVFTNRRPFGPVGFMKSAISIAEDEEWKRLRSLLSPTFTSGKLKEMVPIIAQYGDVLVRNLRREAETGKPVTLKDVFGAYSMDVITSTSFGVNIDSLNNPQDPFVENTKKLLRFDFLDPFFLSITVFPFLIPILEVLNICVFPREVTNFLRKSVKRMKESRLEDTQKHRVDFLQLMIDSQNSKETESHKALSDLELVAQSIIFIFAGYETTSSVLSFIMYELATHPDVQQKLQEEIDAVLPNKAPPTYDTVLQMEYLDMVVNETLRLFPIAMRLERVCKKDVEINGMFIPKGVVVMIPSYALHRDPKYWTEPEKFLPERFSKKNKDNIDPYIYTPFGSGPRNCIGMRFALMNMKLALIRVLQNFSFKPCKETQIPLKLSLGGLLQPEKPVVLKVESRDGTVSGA
pIC50: −log10 of the molar value.
Exercise: state measured pIC50 for each of the molecules provided.

Recorded results for 4 molecules are shown here.
INSERT INTO measurements (molecule, measured_attribute, result) VALUES
  ('COc1ccc(C(=O)NCc2cc(C(C)C)no2)cc1OCCN1CCCCC1', 'pIC50', '< 4.52'),
  ('COc1ccc(C(=O)NCc2cc(C(C)C)no2)cc1OC1CCN(C(C)C)CC1', 'pIC50', '< 4.52'),
  ('CCn1nc(C)c(CNC(=O)c2ccc(OC)c(OC3CCN(C(C)C)CC3)c2)c1C', 'pIC50', '< 4.52'),
  ('COc1ccc(C(=O)NC(C)Cc2ccccn2)cc1OC1CCN(C(C)C)CC1 (stereo not given)', 'pIC50', 4.55);

Consider the record given below.
Request: Quick check: pIC50 of "COc1ccc(C(=O)NCc2csc(C)n2)cc1OC1CCN(C(C)C)CC1" ?
Response: < 4.52

###

pIC50: −log10 of the molar value.
Measurement record for Cytochrome P450 2D6 (Homo sapiens, UniProt P10635); quantity recorded: pIC50.

INSERT INTO measurements (compound, measured_attribute, result) VALUES
  ('COc1ccc(C(=O)NCc2cc(C(C)C)no2)cc1OC1CCN(C(C)C)CC1', 'pIC50', '< 4.52'),
  ('COc1ccc(C(=O)NCc2csc(C)n2)cc1OC1CCN(C(C)C)CC1', 'pIC50', '< 4.52'),
  ('CCn1nc(C)c(CNC(=O)c2ccc(OC)c(OC3CCN(C(C)C)CC3)c2)c1C', 'pIC50', 5.17),
  ('COc1ccc(C(=O)NCc2cc(C(C)C)no2)cc1OCCN1CCCCC1', 'pIC50', '< 4.52'),
  ('COc1ccc(C(=O)NCc2cc(C(C)C)no2)cc1OC1CCN(C)CC1', 'pIC50', '< 4.52');

Note: attention shifts to another entry.
Request: Hello, I am looking for reported pIC50 with Cytochrome P450 2D6 (Homo sapiens, UniProt P10635) for COc1ccc(C(=O)NC(C)Cc2ccccn2)cc1OC1CCN(C(C)C)CC1 (stereo unspecified) . Could you help?
Response: 4.57

###

# System: High affinity choline transporter 1 (Homo sapiens), Q9GZV3 [L531A,V532A]
# Sequence (Q9GZV3 whole entry L531A/V532A): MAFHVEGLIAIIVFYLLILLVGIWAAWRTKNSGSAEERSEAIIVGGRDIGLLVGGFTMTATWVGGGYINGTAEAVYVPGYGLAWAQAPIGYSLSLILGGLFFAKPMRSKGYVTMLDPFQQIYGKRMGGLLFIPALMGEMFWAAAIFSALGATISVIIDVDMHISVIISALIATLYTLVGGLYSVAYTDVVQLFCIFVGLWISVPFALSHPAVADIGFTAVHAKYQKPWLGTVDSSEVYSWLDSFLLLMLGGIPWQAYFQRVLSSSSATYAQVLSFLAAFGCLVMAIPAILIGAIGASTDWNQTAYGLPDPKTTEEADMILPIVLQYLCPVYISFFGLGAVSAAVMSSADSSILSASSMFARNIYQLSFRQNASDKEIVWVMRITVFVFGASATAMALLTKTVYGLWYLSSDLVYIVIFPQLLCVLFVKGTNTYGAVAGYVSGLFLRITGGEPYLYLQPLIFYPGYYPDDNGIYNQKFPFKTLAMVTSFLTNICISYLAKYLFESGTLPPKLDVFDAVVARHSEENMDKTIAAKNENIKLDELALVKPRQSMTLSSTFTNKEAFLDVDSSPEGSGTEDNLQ
# ASSAY INFO: Inhibition of human CHT […] mutant expressed in HEK293 cells assessed as remaining transporter activity at 5 uM in presence of 100 nM [3H]choline by [3H]choline uptake assay
# Type: cell-based
Each record's Activity is compared with low band (below 40%), middle band (40% to below 60%), high band (60% or more) to give its class.

INSERT INTO measurements (molecule, label_class) VALUES
  ('COc1ccc(C(=O)NCc2cnn(C)c2)cc1OC1CCN(C(C)C)CC1', 'high band'),
  ('COc1ccc(C(=O)NCc2cc(C(C)C)no2)cc1OC1CCN(C(C)C)CC1', 'low band'),
  ('CCn1nc(C)c(CNC(=O)c2ccc(OC)c(OC3CCN(C(C)C)CC3)c2)c1C', 'middle band');

Request: Category of "COc1ccc(C(=O)NCc2cc(C(C)C)no2)cc1OCC(C)C" :
Response: high band
